# condition_set: siRNA; further: test system not given here
HELM strings list units from the 5' end as sugar, base in round brackets, then linkage (d deoxyribose, r ribose, m 2'-O-methyl, p phosphodiester). Strings are as the collection lists them, not checked against the first reports. ss, as = sense and antisense strand; [lna] = locked nucleic acid (LNA); [fl2r] = 2'-fluoro
experimental_endpoint: target mRNA knockdown (%)
Numeric only. Scale: %

Would you please look over these solved cases?
Enquiry: So what does the record say about target mRNA knockdown for `RNA1{r(G)p.r(C)p.r(C)p.r(U)p.[fl2r](C)p.r(U)p.r(C)p.[fl2r](U)p.r(A)p.r(U)p.r(C)p.r(C)p.r(U)p.[fl2r](U)p.r(A)p.r(G)p.r(C)p.r(U)p.r(U)p.r(T)p.r(T)}|RNA2{r(A)p.r(A)p.r(G)p.r(C)p.[fl2r](U)p.r(A)p.r(A)p.r(G)p.r(G)p.r(A)p.[fl2r](U)p.r(A)p.r(G)p.r(A)p.r(G)p.r(A)p.r(G)p.r(G)p.r(C)p.r(T)p.r(T)}$$$RNA1{StrandType:ss}|RNA2{StrandType:as}$` ?
Return: 47

Enquiry: So what does the record say about target mRNA knockdown for `RNA1{r(C)p.r(U)p.r(U)p.r(A)p.r(C)p.r(G)p.r(C)p.r(U)p.r(G)p.r(A)p.r(G)p.r(U)p.r(A)p.r(C)p.r(U)p.r(U)p.r(C)p.r(G)p.r(A)p.r(T)p.r(T)}|RNA2{r(T)p.r(C)p.r(G)p.r(A)p.r(A)p.r(G)p.r(U)p.r(A)p.r(C)p.r(U)p.r(C)p.r(A)p.r(G)p.r(C)p.[lna](G)p.r(U)p.r(A)p.r(A)p.r(G)p.[lna](T)p.[lna](T)}$$$RNA1{StrandType:ss}|RNA2{StrandType:as}$` ?
Return: 87

Enquiry: So what does the record say about target mRNA knockdown for `RNA1{r(A)p.[fl2r](C)p.r(A)p.[fl2r](U)p.r(A)p.[fl2r](G)p.r(A)p.r(G)p.r(G)p.r(A)p.r(A)p.r(G)p.r(A)p.r(C)p.r(G)p.r(C)p.r(G)p.r(G)p.r(A)p.r(T)p.r(T)}|RNA2{r(U)p.r(C)p.r(C)p.r(G)p.r(C)p.r(G)p.r(U)p.r(C)p.r(U)p.r(U)p.r(C)p.r(C)p.r(U)p.r(C)p.[fl2r](U)p.r(A)p.[fl2r](U)p.r(G)p.r(U)p.r(T)p.r(T)}$$$RNA1{StrandType:ss}|RNA2{StrandType:as}$` ?
Return: 86

Enquiry: So what does the record say about target mRNA knockdown for `RNA1{m(A)p.m(A)p.r(C)p.r(C)p.r(C)p.m(A)p.r(C)p.r(C)p.m(A)p.r(C)p.m(A)p.r(G)p.r(C)p.m(U)p.m(A)p.r(G)p.m(A)p.m(A)p.r(C)p.m(U)p.m(U)}|RNA2{r(A)p.r(A)p.r(G)p.r(U)p.r(U)p.r(C)p.m(U)p.m(A)p.r(G)p.r(C)p.r(U)p.r(G)p.r(U)p.r(G)p.r(G)p.r(U)p.r(G)p.r(G)p.r(G)p.r(U)p.r(U)}$$$RNA1{StrandType:ss}|RNA2{StrandType:as}$` ?
Return: 44

Enquiry: So what does the record say about target mRNA knockdown for `RNA1{r(G)p.m(C)p.r(A)p.r(G)p.r(A)p.r(G)p.r(A)p.r(A)p.m(U)p.m(C)p.m(U)p.r(A)p.m(C)p.m(C)p.m(U)p.m(U)p.m(U)p.m(C)p.m(C)p.r(T)p.r(T)}|RNA2{r(G)p.r(G)p.r(A)p.r(A)p.r(A)p.r(G)p.r(G)p.m(U)p.r(A)p.r(G)p.r(A)p.m(U)p.m(U)p.m(C)p.m(U)p.m(C)p.m(U)p.r(G)p.m(C)p.r(T)p.r(T)}$$$RNA1{StrandType:ss}|RNA2{StrandType:as}$` ?
Return: 13

Enquiry: So what does the record say about target mRNA knockdown for `RNA1{m(G)p.r(G)p.m(A)p.r(G)p.m(C)p.r(A)p.m(C)p.r(G)p.m(C)p.r(U)p.m(U)p.r(A)p.m(C)p.r(U)p.m(A)p.r(C)p.m(C)p.r(U)p.m(U)p.r(T)p.r(T)}|RNA2{r(A)p.r(A)p.r(G)p.r(G)p.r(U)p.r(A)p.r(G)p.r(U)p.r(A)p.r(A)p.r(G)p.r(C)p.r(G)p.r(U)p.r(G)p.r(C)p.r(U)p.r(C)p.r(C)p.r(T)p.r(T)}$$$RNA1{StrandType:ss}|RNA2{StrandType:as}$` ?
Return: 51

Continuing:
Enquiry: So what does the record say about target mRNA knockdown for `RNA1{r(G)p.r(A)p.r(A)p.r(G)p.r(A)p.r(G)p.r(C)p.r(C)p.m(U)p.m(A)p.m(C)p.r(A)p.m(C)p.r(A)p.r(A)p.r(C)p.r(C)p.r(C)p.r(U)p.r(T)p.r(T)}|RNA2{r(A)p.r(G)p.r(G)p.r(G)p.r(U)p.m(U)p.r(G)p.m(U)p.r(G)p.m(U)p.r(A)p.r(G)p.r(G)p.r(C)p.r(U)p.r(C)p.r(U)p.r(U)p.r(C)p.r(T)p.r(T)}$$$RNA1{StrandType:ss}|RNA2{StrandType:as}$` ?
Return: 74

Enquiry: So what does the record say about target mRNA knockdown for `RNA1{r(U)p.r(U)p.r(U)p.r(C)p.r(C)p.r(C)p.r(C)p.r(C)p.[fl2r](A)p.[fl2r](G)p.[fl2r](G)p.r(U)p.[fl2r](A)p.[fl2r](A)p.[fl2r](C)p.[fl2r](G)p.r(A)p.r(U)p.r(U)p.r(T)p.r(T)}|RNA2{r(A)p.r(A)p.r(U)p.r(C)p.r(G)p.r(U)p.r(U)p.r(A)p.r(C)p.r(C)p.r(U)p.r(G)p.r(G)p.r(G)p.r(G)p.r(G)p.r(A)p.r(A)p.r(A)p.r(T)p.r(T)}$$$RNA1{StrandType:ss}|RNA2{StrandType:as}$` ?
Return: 78

Enquiry: So what does the record say about target mRNA knockdown for `RNA1{r(A)p.r(U)p.r(G)p.r(G)p.r(G)p.r(A)p.r(G)p.r(A)p.r(A)p.r(G)p.m(U)p.r(A)p.r(G)p.r(U)p.r(C)p.r(C)p.r(C)p.r(C)p.r(C)p.r(T)p.r(T)}|RNA2{r(G)p.r(G)p.r(G)p.r(G)p.r(G)p.r(A)p.r(C)p.m(U)p.r(A)p.r(C)p.r(U)p.r(U)p.r(C)p.r(U)p.r(C)p.r(C)p.r(C)p.r(A)p.r(U)p.r(T)p.r(T)}$$$RNA1{StrandType:ss}|RNA2{StrandType:as}$` ?
Return: 84

====

# condition_set: siRNA
HELM strings list units from the 5' end as sugar, base in round brackets, then linkage (d deoxyribose, r ribose, m 2'-O-methyl, p phosphodiester). Strings are as the collection lists them, not checked against the first reports. ss, as = sense and antisense strand; [fl2r] = 2'-fluoro
experimental_endpoint: target mRNA knockdown
Provide the measurement as a number trailed by its unit.

Enquiry: So what does the record say about target mRNA knockdown for `RNA1{r(A)p.r(G)p.r(A)p.r(A)p.r(G)p.r(G)p.r(A)p.r(C)p.m(U)p.r(A)p.r(C)p.m(U)p.r(A)p.r(A)p.r(C)p.r(C)p.m(U)p.r(C)p.r(C)p.r(T)p.r(T)}|RNA2{r(G)p.r(G)p.r(A)p.r(G)p.r(G)p.m(U)p.m(U)p.r(A)p.r(G)p.m(U)p.r(A)p.r(G)p.m(U)p.r(C)p.r(C)p.m(U)p.m(U)p.r(C)p.m(U)p.r(T)p.r(T)}$$$RNA1{StrandType:ss}|RNA2{StrandType:as}$` ?
Return: 49%

Continuing:
Enquiry: So what does the record say about target mRNA knockdown for `RNA1{r(C)p.[fl2r](U)p.r(A)p.r(G)p.r(A)p.r(G)p.r(G)p.[fl2r](A)p.r(U)p.r(C)p.r(U)p.[fl2r](U)p.r(G)p.r(A)p.r(A)p.r(G)p.r(A)p.r(C)p.r(C)p.r(T)p.r(T)}|RNA2{r(G)p.r(G)p.r(U)p.r(C)p.r(U)p.r(U)p.r(C)p.r(A)p.r(A)p.r(G)p.r(A)p.r(U)p.r(C)p.r(C)p.r(U)p.r(C)p.[fl2r](U)p.r(A)p.r(G)p.r(T)p.r(T)}$$$RNA1{StrandType:ss}|RNA2{StrandType:as}$` ?
Return: 78%

====

# condition_set: siRNA
HELM strings list units from the 5' end as sugar, base in round brackets, then linkage (d deoxyribose, r ribose, m 2'-O-methyl, p phosphodiester). Strings are as the collection lists them, not checked against the first reports. ss, as = sense and antisense strand; [lna] = locked nucleic acid (LNA); [fl2r] = 2'-fluoro
# reported target mRNA knockdown; entries follow

Enquiry: So what does the record say about target mRNA knockdown for `RNA1{[fl2r](C)p.r(U)p.[fl2r](A)p.r(G)p.[fl2r](A)p.r(G)p.[fl2r](G)p.r(A)p.[fl2r](U)p.r(C)p.[fl2r](U)p.r(U)p.[fl2r](G)p.r(A)p.[fl2r](A)p.r(G)p.[fl2r](A)p.r(C)p.r(C)p.r(T)p.r(T)}|RNA2{r(G)p.r(G)p.r(U)p.r(C)p.r(U)p.r(U)p.r(C)p.r(A)p.r(A)p.r(G)p.r(A)p.r(U)p.r(C)p.r(C)p.r(U)p.r(C)p.r(U)p.r(A)p.r(G)p.r(T)p.r(T)}$$$RNA1{StrandType:ss}|RNA2{StrandType:as}$` ?
Return: 61%

Please find the next substance below.
Enquiry: So what does the record say about target mRNA knockdown for `RNA1{r(C)p.r(U)p.r(U)p.r(A)p.r(C)p.r(G)p.r(C)p.r(U)p.r(G)p.r(A)p.r(G)p.r(U)p.r(A)p.r(C)p.r(U)p.r(U)p.r(C)p.r(G)p.r(A)p.r(T)p.r(T)}|RNA2{r(T)p.r(C)p.r(G)p.r(A)p.r(A)p.r(G)p.r(U)p.r(A)p.r(C)p.r(U)p.r(C)p.r(A)p.r(G)p.r(C)p.r(G)p.r(U)p.r(A)p.r(A)p.[lna](G)p.[lna](T)p.[lna](T)}$$$RNA1{StrandType:ss}|RNA2{StrandType:as}$` ?
Return: 92%
